Measured On: TEAD1 (Homo sapiens, UniProt P28347)
Construct: endogenous in cells
Sequence (P28347 whole entry): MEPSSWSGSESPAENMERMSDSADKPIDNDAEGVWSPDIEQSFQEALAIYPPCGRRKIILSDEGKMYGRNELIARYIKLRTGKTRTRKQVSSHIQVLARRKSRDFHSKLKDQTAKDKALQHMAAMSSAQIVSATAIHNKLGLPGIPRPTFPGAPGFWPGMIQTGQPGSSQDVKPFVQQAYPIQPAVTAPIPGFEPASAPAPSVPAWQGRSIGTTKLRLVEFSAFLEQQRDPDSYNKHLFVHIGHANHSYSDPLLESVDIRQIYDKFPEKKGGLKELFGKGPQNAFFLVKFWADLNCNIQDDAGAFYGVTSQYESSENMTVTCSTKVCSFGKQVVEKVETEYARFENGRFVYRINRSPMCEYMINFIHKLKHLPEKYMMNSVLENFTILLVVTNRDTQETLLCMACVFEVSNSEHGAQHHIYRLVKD
Assay Comment: TEAD1-Luciferase reporter assay (MCF-7 cell-based TEAD1-Luc assay)
Measurement Parameters: cells treated with compound overnight, luciferase chemiluminescence readout
Overview of recorded IC50 for various compounds

State the recorded IC50 for this entry: C=CC(=O)Nc1ccc(-c2cc(C(F)(F)F)ccn2)cc1 [Compound 51]
0.1 to 5 µM

And what about the compound C=CC(=O)N[C@@H]1CC[C@H](Oc2cccc(C(F)(F)F)c2)C1 (single isomer, unassigned) [Compound 41] ?
≤ 0.1 µM

And what about the compound C=CC(=O)NC1COCC(Oc2cccc(C(F)(F)F)c2)C1 (stereo not drawn) [Compound 39] ?
0.1 to 5 µM

And what about the compound C=CC(=O)NC1CC(OCc2cccc(C(F)(F)F)c2)C1 (stereo not drawn) [Compound 61] ?
≤ 0.1 µM

* * *

Measured On: TEAD1 (Homo sapiens)
Construct: endogenous in cells
Assay Comment: TEAD1-Luciferase reporter assay (MCF-7 cell-based TEAD1-Luc assay)
Measurement Parameters: cells treated with compound overnight, luciferase chemiluminescence readout
Overview of recorded IC50 for various compounds

Illustrative cases are given below, each with its answer.
{"columns": ["Compound", "Measured Quantity", "Recorded Value"],
 "data": [
  ["C=CC(=O)Nc1cc(F)cc(Oc2cccc(C(F)(F)F)c2)c1", "IC50", "≤ 0.1 µM"],
  ["C=CC(=O)N[C@H]1CC[C@@H](Oc2cccc(C(F)(F)F)c2)C1 (single isomer, unassigned)", "IC50", "0.1 to 5 µM"],
  ["C=CC(=O)NC1CC(COc2cccc(C(F)(F)F)c2)C1 (stereo not drawn)", "IC50", "≤ 0.1 µM"],
  ["C#Cc1cccc(Oc2ccccc2NC(=O)CCl)c1", "IC50", "≥ 5 µM"],
  ["C#CCCCO/N=C1/CCc2cc(NC(=O)C=C)ccc21", "IC50", "≥ 5 µM"],
  ["C=CC(=O)N[C@H]1CC[C@H](Oc2cccc(C(F)(F)F)c2)C1", "IC50", "0.1 to 5 µM"],
  ["C=CC(=O)Nc1ccc(-c2cc(C(F)(F)F)on2)cc1", "IC50", "≤ 0.1 µM"],
  ["C=CC(=O)Nc1ccc(-c2cc(C3CC3)on2)cc1", "IC50", "0.1 to 5 µM"]
]}

Shifting focus to the compound that follows.
Identify the measured IC50 of "C=CC(=O)Nc1ccc2c(c1)CCc1cn(CCCCC)nc1-2" for TEAD1 (Homo sapiens).
0.1 to 5 µM

* * *

Measured On: TEAD1 (Homo sapiens)
Construct: endogenous in cells; host or cells: MCF-7
Assay Comment: TEAD1-Luciferase reporter assay (MCF-7 cell-based TEAD1-Luc assay)
Measurement Parameters: cells treated with compound overnight, luciferase chemiluminescence readout
Measured Quantity: IC50

{"columns": ["Compound", "Measured Quantity", "Recorded Value"],
 "data": [
  ["C=CC(=O)Nc1ccc(Oc2cccc(C(F)(F)F)c2)s1", "IC50", "≤ 100 nM"],
  ["C=CC(=O)Nc1ccc(-c2cc(C(F)(F)F)on2)c(Cl)c1", "IC50", "≤ 100 nM"]
]}

State the recorded IC50 for this entry: C=CC(=O)Nc1ccc2nc(OCCCC)ccc2c1 [Compound 18, N-(2-butoxyquinolin-6-yl)acrylamide]
≤ 100 nM

And what about the compound "C=CC(=O)Nc1ccc(-c2nocc2C(F)(F)F)cc1" ?
≤ 100 nM

And what about the compound "C=CC(=O)Nc1ccc2c(c1)CC/C2=N/OCCCCC" ?
≥ 5000 nM

And what about the compound "C=CC(=O)Nc1ccc2c(c1)CCC/C2=N\OCCCCC" ?
≥ 5000 nM

And what about the compound "C=C(F)C(=O)Nc1ccc2c(c1)CCC/C2=N\OCCCCC" ?
100 to 5000 nM

And what about the compound "C=CC(=O)Nc1ccc2c(c1)CCc1c-2noc1CCCC" ?
100 to 5000 nM

And what about the compound "C#CCCCO/N=C1\CCCc2cc(NC(=O)C=C)ccc21" ?
≥ 5000 nM

And what about the compound C=CC(=O)NC1CC2(CC(NCc3cccc(C(F)(F)F)c3)C2)C1 (stereo not shown) ?
≤ 100 nM

Where do the numbers come from? From patent US12583815B2.
